# Target of assay: T1, Aβ1–42 peptide film (mostly monomeric Aβ1–42) (UniProt P05067 672-713)
# T1 construct: amyloid-β peptide Aβ1–42, cut from the amyloid precursor protein (APP), freshly dissolved peptide film containing mostly monomers and smaller oligomers; Same peptide as m14, not fibrillised; also called Aβ1–42 monomers; Aβ peptide film; source: bought: Bachem (lyophilized powder); HFIP film, reconstituted with 0.54% DMSO in PBS
# T1 sequence (P05067 672-713): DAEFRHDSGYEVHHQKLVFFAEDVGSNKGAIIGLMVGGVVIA
# Experiment: ELISA; Aβ1–42 peptide film (mostly monomers) coated on the plate (10 µg/ml, bicarbonate-carbonate buffer pH 9.6); D-compounds from 10 µg/ml, 2 h at 37°C; detected by anti-fluorescein isothiocyanate-AP, pNPP 2.5 h
# Assay context: both partners purified
Square brackets hold non-standard residues; d marks the D form. Primed or numbered codes have the meaning given here. Ends that are not written are not given here. FITC′ = fluorescein isothiocyanate (ϕ)
Cut-off 200% on % binding relative to ACI-80-Kϕ: below means label 1, at or above means label 0.

- Binder: "[dQ][dS][dH][dY][dR][dH][dI][dS][dP][dA][dQ][dK][dK](FITC′) (D-enantiomeric derivative of ACI-80 (D1): V12K, added C-terminal lysine; also called D1-V12K-Kϕ; source: synthetic peptide (JPT Peptide Technologies GmbH, Berlin)) [ACI-87-Kϕ]"
  Label value: "label 1"
- Binder: "[dS][dH][dY][dR][dH][dI][dS][dP][dA][dQ][dK][dK](FITC′) (D-enantiomeric derivative of ACI-80 (D1): N-terminal glutamine deleted (Q1X), V12K, added C-terminal lysine; also called D1-Q1X-V12K-Kϕ; source: synthetic peptide (JPT Peptide Technologies GmbH, Berlin)) [ACI-88-Kϕ]"
  Label value: "label 0"
- Binder: "[dP][dS][dF][dY][dR][dH][dI][dS][dP][dA][dQ][dV][dK](FITC′) (D-enantiomeric derivative of ACI-80 (D1): Q1P, H3F, added C-terminal lysine; also called D1-Q1P-H3F-Kϕ; source: synthetic peptide (JPT Peptide Technologies GmbH, Berlin)) [ACI-86-Kϕ]"
  Label value: "label 1"
- Binder: "[dP][dS][dH][dY][dR][dH][dI][dS][dP][dA][dQ][dK][dK](FITC′) (D-enantiomeric derivative of ACI-80 (D1): Q1P, V12K, added C-terminal lysine; also called D1-Q1P-V12K-Kϕ; source: synthetic peptide (JPT Peptide Technologies GmbH, Berlin)) [ACI-89-Kϕ]"
  Label value: "label 0"
- Binder: "[dQ][dS][dH][dY][dR][dH][dI][dS][dP][dA][dQ][dK][dK](FITC′) (also: [19F]-4-fluorobenzoyl label, place not given here, D-enantiomeric derivative of ACI-80 (D1): V12K, added C-terminal lysine, fluorinated; The text says V12K was made to enable fluorination; also called D1-V12K-K[^19F]ϕ; source: synthetic peptide, reacted with [^19F]-N-succinimidyl-4-fluorobenzoate (SFB), HPLC purified) [[^19F]-ACI-87-Kϕ]"
  Label value: "label 1"
- Binder: "[dS][dH][dY][dR][dH][dI][dS][dP][dA][dQ][dV][dK](FITC′) (D-enantiomeric derivative of ACI-80 (D1): N-terminal glutamine deleted (Q1X), added C-terminal lysine; also called D1-Q1X-Kϕ; source: synthetic peptide (JPT Peptide Technologies GmbH, Berlin)) [ACI-82-Kϕ]"
  Label value: "label 1"
- Binder: "[dQ][dS][dH][dY][dR][dH][dI][dS][dP][dA][dQ][dV][dK](FITC′) (D-enantiomeric peptide ACI-80 (D1), selected by mirror image phage display on aggregated Aβ1–42, with an added C-terminal lysine; also called D1-Kϕ; source: synthetic peptide (JPT Peptide Technologies GmbH, Berlin)) [ACI-80-Kϕ]"
  Label value: "label 1"
- Binder: "[dS][dH][dY][dR][dH][dI][dS][dP][dA][dQ][dK][dK](FITC′) (also: [19F]-4-fluorobenzoyl label, place not given here, D-enantiomeric derivative of ACI-80 (D1): N-terminal glutamine deleted (Q1X), V12K, added C-terminal lysine, fluorinated; also called D1-Q1X-V12K-K[^19F]ϕ; source: synthetic peptide, reacted with [^19F]-N-succinimidyl-4-fluorobenzoate (SFB), HPLC purified) [[^19F]-ACI-88-Kϕ]"
  Label value: "label 0"
- Binder: "[dP][dS][dH][dY][dR][dH][dI][dS][dP][dA][dQ][dV][dK](FITC′) (D-enantiomeric derivative of ACI-80 (D1): Q1P, added C-terminal lysine; also called D1-Q1P-Kϕ; source: synthetic peptide (JPT Peptide Technologies GmbH, Berlin)) [ACI-83-Kϕ]"
  Label value: "label 0"
- Binder: "[dP][dS][dH][dY][dR][dH][dI][dS][dP][dA][dQ][dK][dK](FITC′) (also: [19F]-4-fluorobenzoyl label, place not given here, D-enantiomeric derivative of ACI-80 (D1): Q1P, V12K, added C-terminal lysine, fluorinated; also called D1-Q1P-V12K-K[^19F]ϕ; source: synthetic peptide, reacted with [^19F]-N-succinimidyl-4-fluorobenzoate (SFB), HPLC purified) [[^19F]-ACI-89-Kϕ]"
  Label value: "label 0"
- Binder: "[dS][dF][dY][dR][dH][dI][dS][dP][dA][dQ][dV][dK](FITC′) (D-enantiomeric derivative of ACI-80 (D1): N-terminal glutamine deleted (Q1X), H3F, added C-terminal lysine; also called D1-Q1X-H3F-Kϕ; source: synthetic peptide (JPT Peptide Technologies GmbH, Berlin)) [ACI-85-Kϕ]"
  Label value: "label 1"
